- experiment-description: modulators of MEP2-GFP levels in yeast, confirmation, S. cerevisiae, flow cytometry GFP, cherry picks (AID 2272);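 note: ratio of well signal to plate DMSO mean so 100% equals DMSO level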
- condition-set: S. cerevisiae MEP2-GFP strain, 3 h, at 10 µM, stronger effect = higher value
quantity-kind: GFP response vs DMSO (%)

>>> measured("CCOC(=O)C1CCCN(c2nc3c(C)cccn3c(=O)c2/C=C(\\C#N)C(=O)NCc2ccco2)C1 (stereo not given)")
114
>>> measured("Cc1c(O)nc(SC2CC(=O)N(c3ccccc3)C2=O)[nH]c1=O (stereo not given)")
99.5
>>> measured("COc1ccc(C(=O)ON=C2CCN(c3ccc([N+](=O)[O-])cc3)CC2)cc1")
97.5
>>> measured("O=C(Nc1cccc(C(F)(F)F)c1)Oc1ccc(Cl)c2cccnc12")
103
>>> measured("CCn1c(=O)c(C(=O)NCc2ccc(OC)c(OC)c2)c(O)c2ccccc21")
100
>>> measured("Nc1c(C(=O)c2cccs2)sc2nsc(SCCN3CCCCC3)c12")
241
>>> measured("CC(=O)c1ccccc1NCC(=O)Nc1ccc(C)cc1")
103
>>> measured("CCOc1ccccc1N1C(=O)CC(Sc2ncccc2C(=O)O)C1=O (stereo not given)")
120
>>> measured("O=C1c2ccsc2SCCN1Cc1c(Cl)cccc1Cl")
93.5
>>> measured("CCOC(=O)c1cc(-c2ccc(/C=C3/C(=O)NC(=O)C(C#N)=C3C)o2)ccc1Cl")
160

---

- experiment-description: LAP4-GFP expression modulators in yeast, confirmation, cell-based, cherry picks, flow cytometry, mother/daughter gates (AID 2271);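 note: ratio of sample to DMSO plate mean so 100% equals DMSO level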
- condition-set: S. cerevisiae LAP4-GFP strain, 3 h, measured here: mother cell gate response, at 10 µM, stronger effect = higher value, 100 means same as DMSO control
quantity-kind: GFP response relative to DMSO (%)

>>> measured("Cn1ncc2c(O/N=C(\\N)c3ccc(C(C)(C)C)cc3)ncnc21")
162
>>> measured("CCOC(=O)Cc1csc(NC(=O)c2sc3nc4ccc(C)cc4cc3c2N)n1")
95.2
>>> measured("O=C1c2ccsc2SCCN1Cc1cccc(Cl)c1")
110
>>> measured("Cc1ccccc1Sc1ncnc2onc(C)c12")
97.4
>>> measured("O=C(OCCCOC(=O)c1ccc(Br)o1)c1ccc(Br)o1")
109
>>> measured("CCOC(=O)C(=CNNc1ccccc1)C(=O)OCC")
140
>>> measured("Cc1ccc(NS(=O)(=O)c2ccc(CCC(=O)N3CCOCC3)cc2)cc1")
95.1
>>> measured("CCOc1cc(-c2noc(-c3cccnc3)n2)ccc1OC")
100
>>> measured("COc1ccccc1N1CCN(C(=O)c2ccccc2Oc2ccccc2)CC1")
87.3
>>> measured("Cc1ncc2c(n1)-c1cc(F)ccc1SC2")
85.5
>>> measured("CCOc1ccccc1N1CCN(C(=O)c2ccccc2)CC1")
103
>>> measured("Cc1cc(OCC(=O)Nc2ccc(S(=O)(=O)N3CCN(C)CC3)cc2)ccc1Br")
97.4

---

Measured differentiation response values are reported for all entries that follow.
- experiment-description: promoters of myeloid differentiation in arrested cells, primary screen, cell-based, GFP/MAC1 double positive, flow cytometry, validation set (AID 588685);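 note: compound exposure lasts four days before antibody staining and flow analysis; 0% = DMSO wells and 100% = 5 µM fulvestrant positive control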
- condition-set: ER-HoxA9 marrow cells, stronger effect = higher value, normalized: vehicle 0, fulvestrant 100
quantity-kind: differentiation response (%)

>>> measured("CC(C)CCOCC(=O)Nc1cccc(C(=O)O)c1")
11.1
>>> measured("Cc1ccc(P(=O)(CSC(=N)N)c2ccc(C)cc2)cc1")
4.2
>>> measured("O=C(NNC(=O)c1cccs1)c1ccco1")
1.41
>>> measured("CCCN1C[C@H](CSC)C[C@@H]2c3cccc4[nH]cc(c34)C[C@H]21")
-10.9

---

- experiment-description: RPL19A-GFP modulators, yeast TOR pathway, confirmation, cell-based, S. cerevisiae, flow cytometry, cherry picks, mother/daughter gates (AID 2270)
- condition-set: S. cerevisiae RPL19A-GFP strain, 3 h, measured here: daughter cell gate, at 10 µM, stronger effect = lower value, 100 = same GFP as DMSO wells
quantity-kind: GFP response vs DMSO (%)

>>> measured("O=C(Nc1nccs1)C(c1ccccc1)N1CCCCC1 (stereo not given)")
100
>>> measured("Cc1cc(S(=O)(=O)ON2C(=O)c3ccccc3C2=O)ccc1F")
84.3
>>> measured("CC1CCCN(CCCNC(=O)C2CCN(S(=O)(=O)N3CCC4(CC3)OCCO4)CC2)C1 (stereo not given)")
96.1
>>> measured("COC(=O)Cc1ccc(OCc2ccc(Cl)nc2)cc1")
97.5
>>> measured("Cc1cccn2c(=O)c(/C=C(\\C#N)C(=O)NC3CCS(=O)(=O)C3)c(N3CC(C)OC(C)C3)nc12 (stereo not given)")
99.4

---

- experiment-description: inhibitors of CD8+ T cell-vesicle binding, pilot screen, LFA-1/ICAM-1 modulator project, MLPCN validation set, flow cytometry (AID 2523);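 note: mean PE anti-B7-1 fluorescence of CD8+ cells relative to row control; 100% = QL9-loaded vesicles with DMSO vehicle in the same plate row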
- condition-set: 2C mouse CD8+ T cells, at 7 µM, stronger effect = lower value
The source made the active and inactive calls.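 How the source made its calls: active means response below a set limit, under 55% cells CD8-positive and vesicle-bound, and CD8 cells' 90th-percentile brightness under 279; inactive means the rest.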
Overview of recorded vesicle binding response for various molecules
quantity-kind: vesicle binding response

>>> measured("COC1(C)CC2C(CC1OC(=O)c1cc([N+](=O)[O-])cc([N+](=O)[O-])c1)C2(C)C (configuration not stated)")
"222% (inactive)"
>>> measured("Cc1ncc([N+](=O)[O-])n1CCO")
"172% (inactive)"
>>> measured("Cc1ncc([N+](=O)[O-])n1CC(O)CCl (configuration not stated)")
"193% (inactive)"
>>> measured("Cc1cnc(C(=O)N2CCCC(C(=O)c3ccc(Cl)cc3C)C2)cn1 (configuration not stated)")
"175% (inactive)"
>>> measured("COc1ccc(NC(=S)NCCc2c[nH]c3ccccc23)cc1")
"445% (inactive)"
>>> measured("CC(=Nc1ccccc1)C1=C(O)CCCC1=O")
"312% (inactive)"
>>> measured("CC(C)c1ccccc1OCCNC(=S)NC(=O)c1cccnc1")
"185% (inactive)"
>>> measured("CN(CCCN1CCOCC1)Cc1cn(C)nc1-c1ccccc1F")
"246% (inactive)"
>>> measured("Cc1c(OC(=O)CNC(=O)OC(C)(C)C)ccc2c3c(c(=O)oc12)CCC3")
"210% (inactive)"
>>> measured("CCn1c(O)c(/C=C2\\C=Nc3ccccc32)sc1=O")
"97.1% (inactive)"
>>> measured("CCN1CCN(C(=O)N[C@@H](C(=O)N[C@@H]2C(=O)N3[C@@H]2SC(C)(C)[C@@H]3C(=O)O)c2ccccc2)C(=O)C1=O")
"138% (inactive)"
>>> measured("COc1c2occc2c(OC)c2c(=O)cc(C)oc12")
"176% (inactive)"

---

- experiment-description: modulators of MEP2-GFP levels in yeast, confirmation, S. cerevisiae, flow cytometry GFP, second cherry picks (AID 2622);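 note: median channel GFP fluorescence of all gated yeast cells per well; ratio of median GFP to plate DMSO average so 100% = DMSO level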
- condition-set: S. cerevisiae MEP2-GFP strain, 3 h, at 10 µM, stronger effect = higher value
The other results are listed elsewhere or left out.
Recorded measurements of GFP response vs DMSO, one per entry
quantity-kind: GFP response vs DMSO (%)

>>> measured("CC1=C/C(=N\\OS(=O)(=O)c2ccccc2)C=CC1=O")
145
>>> measured("COc1ccc(-c2nc(CS(=O)(=O)CC(=O)NCc3cccc(Br)c3)c(C)o2)cc1")
119
>>> measured("CC(Oc1ccc2ccccc2c1)C(=O)NNC(=S)NC(=O)c1ccco1 (stereo unspecified)")
175
>>> measured("CCN1/C(=C/c2ccc3ccc(C)cc3[n+]2CC)Sc2ccccc21")
1240
>>> measured("O=C(COc1cccnc1[N+](=O)[O-])Nc1ccc(Cl)cc1F")
101
>>> measured("CCn1c(SCCC(C)C)nnc1-c1c[nH]c2ccccc12")
96.1
>>> measured("CC(C)[C@@H]1COC(c2cccc(C3=N[C@H](C(C)C)CO3)c2)=N1")
98.2
>>> measured("COC(=O)C[n+]1cccc2ccccc21")
103
>>> measured("Cc1ccc(S/C(=N\\S(=O)(=O)c2ccc(Cl)cc2)c2ccccc2)cc1")
105
>>> measured("CCC(=C/c1sc2ccc3ccccc3c2[n+]1C)/C=C1\\Sc2ccc3ccccc3c2N1C")
285
>>> measured("O=C(Nc1nnc(-c2ccc(Cl)cc2)o1)c1ccccc1Br")
120

---

- experiment-description: AGP1-GFP expression modulators, hit retest, confirmation, cell-based, flow cytometry, S. cerevisiae, cherry picks (AID 2273);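 note: median GFP channel fluorescence over the whole cell population gate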
- condition-set: S. cerevisiae AGP1-GFP strain, 3 h, at 10 µM
Activity calls are given as the source filed them.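 Rule for the calls: active = GFP response above 150% of the DMSO level; inconclusive = fewer than 70 events counted for a yeast strain; inactive = the rest.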
Readings of GFP response, % of DMSO for the listed molecules
quantity-kind: GFP response, % of DMSO

>>> measured("COc1cc(C(O)P(=O)(OCC(C)C)OCC(C)C)cc(OC)c1OC (stereo unspecified)")
"100% (inactive)"
>>> measured("Oc1c(Br)cc(Br)cc1C=Nc1ccc2c(c1)OCO2")
"99.3% (inactive)"
>>> measured("COC(=O)c1ccc(/C=N/NC(=O)c2cccc(F)c2)cc1")
"99.3% (inactive)"
>>> measured("C/C(=N\\NC(=O)c1cc2ccccc2cc1O)c1ccccn1")
"109% (inactive)"
>>> measured("O=[N+]([O-])c1ccc(N2CCN(CCO)CC2)cc1Sc1ccccn1")
"96.1% (inactive)"
>>> measured("CC(Oc1ccc(Br)cc1)C(=O)Nc1nc(-c2ccccn2)cs1 (stereo unspecified)")
"92.9% (inactive)"
